assayed_system: HLA-B*4002 (human)
protocol: competitive inhibition binding assay, purified HLA
study_conditions: remark: other sources report otherwise
metric: IC50

Task: Give the measured IC50 for VELVHFLL [MAGE2-derived B44 peptide VELVHFLL, position 114]
Output: 31 nM
